# target system: Kappa-type opioid receptor (Homo sapiens)
# Sequence (P41145 whole entry): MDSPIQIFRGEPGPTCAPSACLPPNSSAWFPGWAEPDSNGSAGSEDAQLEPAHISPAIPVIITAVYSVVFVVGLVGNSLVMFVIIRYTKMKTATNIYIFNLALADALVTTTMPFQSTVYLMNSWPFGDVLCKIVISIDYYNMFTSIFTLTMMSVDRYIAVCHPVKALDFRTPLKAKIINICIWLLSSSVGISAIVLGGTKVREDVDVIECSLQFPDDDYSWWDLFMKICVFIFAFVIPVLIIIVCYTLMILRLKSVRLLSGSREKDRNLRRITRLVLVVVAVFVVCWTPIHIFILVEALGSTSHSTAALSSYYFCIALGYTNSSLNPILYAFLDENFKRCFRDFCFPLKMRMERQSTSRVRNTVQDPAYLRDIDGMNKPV
# method summary: Displacement of [125I]U69593 from human cloned kappa opioid receptor
A collection of compounds and their measured pIC50
# log scale: pIC50 equals minus log10 of the concentration in mol/L

The following compounds have reported results that may help.
{"columns": ["compound", "quantity measured", "readout number"],
 "data": [
  ["COCCN(C(=O)c1sccc1Cl)C1c2ccccc2C=CC1N1CCN(c2ccccc2)CC1 (racemic)", "pIC50", 5.15],
  ["COCCN(C(=O)Cc1ccc(Cl)cc1)C1c2ccccc2C=CC1N1CCN(c2ccccc2)CC1 (racemic)", "pIC50", 5.10],
  ["COCCN(C(=O)c1sccc1Cl)[C@@H]1c2ccccc2C=C[C@H]1N1CCN(c2ccccc2)CC1", "pIC50", 5.88]
]}

// switching to the query compound
Would you mind telling me what pIC50 value was observed for COCCNC1c2ccccc2CCC1c1ccsc1 (racemic) ?
5.66
